EXPERIMENTAL_PROTOCOL: Biodistribution in mammary tumor-bearing rats primed with estradiol
Format: in vivo, rat
SETUP_CONDITIONS: rat, uterus, iv, 10 uCi/rat, 24 h, read-out: Uterus uptake
PARAMETER: tissue uptake at 24 h (%ID/g)
Express it in %ID/g; write the number only.

## Task Please give the documented tissue uptake at 24 h of CCN(CC)CCOc1ccc(/C(=C(/CCC[131I])c2ccccc2)c2ccccc2)cc1 [^131 I-IODOTAMOXIFEN]
## Result 0.335

* * *

EXPERIMENTAL_PROTOCOL: in vivo
Design: species or system rat
SETUP_CONDITIONS: rat, liver, iv; 24 h; read-out: Liver uptake
Description: In animal tissue distribution studies, each rate was given 8.9 μCi (0.15 ml) tracer intravenously. The tumor-bearing rats were killed at 1, 3, 6 and 24 h. […] The amount of DES given should occupy tumor estrogen receptor sites. […] Female Fisher 344 rats (250-275 g) (Harlan, Inc., Indianapolis, Ind.) were inoculated with mammary tumor cells using the 13762 tumor cell line (s.c. 10^5 cells/rat). […] The tissues were weighted and counted for radioactivity. […]
PARAMETER: tissue uptake at 24 h (%ID/g)
Express it in %ID/g; write the number only.

## Task Please give the documented tissue uptake at 24 h of CCN(CC)CCOc1ccc(/C(=C(/CCC[131I])c2ccccc2)c2ccccc2)cc1
## Result 2.47

* * *

EXPERIMENTAL_PROTOCOL: in vivo
Set-up: species or system rat
SETUP_CONDITIONS: rat, liver, iv; 2 h; read-out: Liver uptake
PARAMETER: tissue uptake at 2 h (%ID/g)
Express it in %ID/g; write the number only.

## Task Please give the documented tissue uptake at 2 h of CCN(CC)CCOc1ccc(/C(=C(/CCC[18F])c2ccccc2)c2ccccc2)cc1 [[^18 F]FTX]
## Result 6.93

* * *

EXPERIMENTAL_PROTOCOL: Biodistribution in mammary tumor-bearing rats primed with estradiol
Assay type: in vivo, rat
SETUP_CONDITIONS: rat, liver, iv, 10 uCi/rat, 24 h, read-out: Liver uptake
PARAMETER: tissue uptake at 24 h (%ID/g)
Express it in %ID/g; write the number only.

## Task Please give the documented tissue uptake at 24 h of CCN(CC)CCOc1ccc(/C(=C(/CCC[131I])c2ccccc2)c2ccccc2)cc1
## Result 2.71

* * *

// reported RBA (relative binding affinity) for each item listed
TARGET_DESC: estrogen receptor (Sus scrofa, UniProt Q29040)
Sequence (Q29040 1-595): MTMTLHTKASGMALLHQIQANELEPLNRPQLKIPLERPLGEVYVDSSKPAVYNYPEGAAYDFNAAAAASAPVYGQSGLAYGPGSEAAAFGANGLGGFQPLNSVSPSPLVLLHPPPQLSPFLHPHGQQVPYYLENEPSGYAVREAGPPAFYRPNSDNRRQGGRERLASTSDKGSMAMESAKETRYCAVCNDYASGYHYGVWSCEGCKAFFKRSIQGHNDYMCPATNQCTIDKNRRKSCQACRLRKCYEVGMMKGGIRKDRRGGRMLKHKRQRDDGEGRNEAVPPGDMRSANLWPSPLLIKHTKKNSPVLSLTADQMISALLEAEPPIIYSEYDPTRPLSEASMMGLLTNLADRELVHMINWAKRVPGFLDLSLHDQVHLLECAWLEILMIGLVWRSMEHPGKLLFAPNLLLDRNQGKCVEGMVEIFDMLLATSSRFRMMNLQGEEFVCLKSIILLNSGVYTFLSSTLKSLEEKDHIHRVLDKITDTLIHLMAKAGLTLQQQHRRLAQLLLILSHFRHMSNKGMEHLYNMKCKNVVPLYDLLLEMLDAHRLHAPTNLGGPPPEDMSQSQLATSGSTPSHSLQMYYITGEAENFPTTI
SETUP_CONDITIONS: tamoxifen = 100
API doc: respond with a numeric literal and nothing else, no unit.

Worked set:
* CCN(CC)CCOc1ccc(/C(=C(/CCCO)c2ccccc2)c2ccccc2)cc1 [III (trans), N,N-diethyl-hydroxymethyltamoxifen] | 400
* CCN(CC)CCOc1ccc(/C(=C(\CCF)c2ccccc2)c2ccccc2)cc1 (single isomer, unassigned) [IV (Cis), N,N-diethyl-fluorotamoxifen] | 100

Now for another entry.
## Task Please give the documented RBA (relative binding affinity) of CCN(CC)CCOc1ccc(/C(=C(/CCCN)c2ccccc2)c2ccccc2)cc1 [TX-NH2 (trans), Amino Tamoxifen]
## Result 10

* * *

EXPERIMENTAL_PROTOCOL: in vivo
Design: species or system rat
SETUP_CONDITIONS: rat, kidney, iv; 1 h; read-out: Kidney uptake
PARAMETER: tissue uptake at 1 h (%ID/g)
Express it in %ID/g; write the number only.

## Task Please give the documented tissue uptake at 1 h of CCN(CC)CCOc1ccc(/C(=C(/CCC[131I])c2ccccc2)c2ccccc2)cc1
## Result 1.88

* * *

EXPERIMENTAL_PROTOCOL: in vivo
Design: species or system rat
SETUP_CONDITIONS: rat, spleen, iv; 24 h; read-out: Spleen uptake
PARAMETER: tissue uptake at 24 h
Please state the number and follow it with the unit.

## Task Please give the documented tissue uptake at 24 h of CCN(CC)CCOc1ccc(/C(=C(/CCC[131I])c2ccccc2)c2ccccc2)cc1 [^131 I-IODOTAMOXIFEN]
## Result 0.688 %ID/g

* * *

EXPERIMENTAL_PROTOCOL: Biodistribution in mammary tumor-bearing rats primed with estradiol
Format: in vivo, rat
SETUP_CONDITIONS: rat, tumor, iv, 3 h, read-out: Tumor uptake
Method: Female Fisher 344 rats (250-275 g) (Harlan, Inc., Indianapolis, Ind.) were inoculated with mammary tumor cells using the 13762 tumor cell line (s.c. 10^5 cells/rat). After 14 days, a tumor size of 1-2 cm was observed. For ^131 I-ITX studies, five groups of rats (N=3/group) were anesthetized with ketamine (10-15 mg/rat). […] The tissues were weighted and counted for radioactivity. The percent of injected dose per gram of tissue weight was calculated. […]
PARAMETER: tissue uptake at 3 h
Please state the number and follow it with the unit.

## Task Please give the documented tissue uptake at 3 h of CCN(CC)CCOc1ccc(/C(=C(/CCC[131I])c2ccccc2)c2ccccc2)cc1
## Result 0.42 %ID/g

* * *

EXPERIMENTAL_PROTOCOL: Biodistribution in mammary tumor-bearing rats primed with estradiol
Format: in vivo, rat
SETUP_CONDITIONS: rat, kidney, iv, 10 uCi/rat, 3 h, read-out: Kidney uptake
PARAMETER: tissue uptake at 3 h
Please state the number and follow it with the unit.

## Task Please give the documented tissue uptake at 3 h of CCN(CC)CCOc1ccc(/C(=C(/CCC[131I])c2ccccc2)c2ccccc2)cc1 [^131 I-IODOTAMOXIFEN]
## Result 1.49 %ID/g

* * *

EXPERIMENTAL_PROTOCOL: Biodistribution in mammary tumor-bearing rats primed with estradiol
Assay type: in vivo, rat
SETUP_CONDITIONS: rat, liver, iv, 10 uCi/rat, 3 h, read-out: Liver uptake
PARAMETER: tissue uptake at 3 h (%ID/g)
Express it in %ID/g; write the number only.

## Task Please give the documented tissue uptake at 3 h of CCN(CC)CCOc1ccc(/C(=C(/CCC[131I])c2ccccc2)c2ccccc2)cc1
## Result 6.73

* * *

EXPERIMENTAL_PROTOCOL: Biodistribution in mammary tumor-bearing rats primed with estradiol
Format: in vivo, rat
SETUP_CONDITIONS: rat, muscle, iv, 10 uCi/rat, 24 h, read-out: Muscle uptake
Experimental: Female Fisher 344 rats (250-275 g) (Harlan, Inc., Indianapolis, Ind.) were inoculated with mammary tumor cells using the 13762 tumor cell line (s.c. 10^5 cells/rat). After 14 days, a tumor size of 1-2 cm was observed. For ^131 I-ITX studies, five groups of rats (N=3/group) were anesthetized with ketamine (10-15 mg/rat). […] The tissues were weighted and counted for radioactivity. The percent of injected dose per gram of tissue weight was calculated. […]
PARAMETER: tissue uptake at 24 h
Please state the number and follow it with the unit.

## Task Please give the documented tissue uptake at 24 h of CCN(CC)CCOc1ccc(/C(=C(/CCC[131I])c2ccccc2)c2ccccc2)cc1
## Result 0.114 %ID/g

* * *

EXPERIMENTAL_PROTOCOL: in vivo
Parameters: species or system rat
SETUP_CONDITIONS: rat, lung, iv; 3 h; read-out: Lung uptake
PARAMETER: tissue uptake at 3 h (%ID/g)
Express it in %ID/g; write the number only.

## Task Please give the documented tissue uptake at 3 h of CCN(CC)CCOc1ccc(/C(=C(/CCC[131I])c2ccccc2)c2ccccc2)cc1
## Result 3.71

* * *

EXPERIMENTAL_PROTOCOL: in vivo
Design: species or system rat
SETUP_CONDITIONS: rat, muscle, iv; 6 h; read-out: Muscle uptake
PARAMETER: tissue uptake at 6 h (%ID/g)
Express it in %ID/g; write the number only.

## Task Please give the documented tissue uptake at 6 h of CCN(CC)CCOc1ccc(/C(=C(/CCC[131I])c2ccccc2)c2ccccc2)cc1
## Result 0.204
